Listing of recorded Percent of Control by entry.
# System: CHIKV nsP1 guanylation activity
# assay: Guanylation assay, covalent nsP1-GTP-680 formation, SDS-PAGE fluorescence
# protocol conditions: single replicates, 100 μM analog, scaled guanylation, Fig 4 data; 100 µM
measurement name: Percent of Control

[
  {
    "smiles repr": "Nc1nc2c(ncn2[C@@H]2O[C@H](COP(=O)(O)O)[C@@H](O)[C@H]2O)c(=O)[nH]1",
    "recorded result": 96.3413
  },
  {
    "smiles repr": "O=c1[nH]cnc2c1ncn2[C@@H]1O[C@H](COP(=O)(O)OP(=O)(O)OP(=O)(O)O)[C@@H](O)[C@H]1O",
    "recorded result": 92.365
  },
  {
    "smiles repr": "Nc1nc2c(ncn2[C@@H]2O[C@H](COP(=O)(O)OP(=O)(O)OP(=O)(O)O)[C@@H](O)[C@H]2O)c(=O)[nH]1",
    "recorded result": 42.0576
  },
  {
    "smiles repr": "Nc1ncnc2c1ncn2[C@@H]1O[C@H](COP(=O)(O)OP(=O)(O)OP(=O)(O)O)[C@@H](O)[C@H]1O",
    "recorded result": 67.4851
  },
  {
    "smiles repr": "Nc1nc2c(ncn2[C@@H]2O[C@H](COP(=O)(O)OP(=O)(O)OP(=O)(O)OC[C@H]3O[C@@H](n4cnc5c(N)ncnc54)[C@H](O)[C@@H]3O)[C@@H](O)[C@H]2O)c(=O)[nH]1",
    "recorded result": 57.9814
  }
]

----------
Listing of recorded Ki by entry.
# tested system: CHIKV nsP1 GTP binding site
# assay: FP competition assay, displacement of GTP-Bodipy by GTP and RNA cap analogs (apparent Ki / EC50)
# protocol conditions: read-out: Average Ki; apparent Ki, 500 nM nsP1, 10 nM GTP-Bodipy, 1 hour 25°C
measurement name: Ki (µM)

[
  {
    "smiles repr": "Cn1c[n+]([C@@H]2O[C@H](COP(=O)(O)O)[C@@H](O)[C@H]2O)c2nc(N)[nH]c(=O)c21",
    "tested system": "CHIKV nsP1 GTP binding site",
    "recorded result": 21.9
  },
  {
    "smiles repr": "Cn1c[n+]([C@@H]2O[C@H](COP(=O)([O-])OP(=O)(O)OP(=O)(O)O)[C@@H](O)[C@H]2O)c2nc(N)[nH]c(=O)c21",
    "tested system": "CHIKV nsP1 GTP binding site",
    "recorded result": 1.55
  },
  {
    "smiles repr": "Nc1ccn([C@@H]2O[C@H](COP(=O)(O)OP(=O)(O)OP(=O)(O)O)[C@@H](O)[C@H]2O)c(=O)n1",
    "tested system": "CHIKV nsP1 GTP binding site",
    "recorded result": 6.94
  },
  {
    "smiles repr": "Nc1ncnc2c1ncn2[C@@H]1O[C@H](COP(=O)(O)OP(=O)(O)OP(=O)(O)O)[C@@H](O)[C@H]1O",
    "tested system": "CHIKV nsP1 GTP binding site",
    "recorded result": 3.34
  },
  {
    "smiles repr": "Nc1nc2c(ncn2[C@@H]2O[C@H](COP(=O)(O)OP(=O)(O)O)[C@@H](O)[C@H]2O)c(=O)[nH]1",
    "tested system": "CHIKV nsP1 GTP binding site",
    "recorded result": 4.89
  },
  {
    "smiles repr": "O=c1[nH]cnc2c1ncn2[C@@H]1O[C@H](COP(=O)(O)OP(=O)(O)OP(=O)(O)O)[C@@H](O)[C@H]1O",
    "tested system": "CHIKV nsP1 GTP binding site",
    "recorded result": 1.91
  },
  {
    "smiles repr": "Nc1nc2c(ncn2[C@@H]2O[C@H](COP(=O)(O)OP(=O)(O)OP(=O)(O)O)[C@@H](O)[C@H]2O)c(=O)[nH]1",
    "tested system": "CHIKV nsP1 GTP binding site",
    "recorded result": 0.546
  },
  {
    "smiles repr": "O=c1[nH]c(=O)c2ncn([C@@H]3O[C@H](COP(=O)(O)OP(=O)(O)OP(=O)(O)O)[C@@H](O)[C@H]3O)c2[nH]1",
    "tested system": "CHIKV nsP1 GTP binding site",
    "recorded result": 0.402
  },
  {
    "smiles repr": "Nc1nc2c(ncn2[C@H]2CC[C@@H](COP(=O)(O)OP(=O)(O)OP(=O)(O)O)O2)c(=O)[nH]1",
    "tested system": "CHIKV nsP1 GTP binding site",
    "recorded result": 0.425
  },
  {
    "smiles repr": "Nc1nc2c(ncn2[C@@H]2O[C@H](COP(=O)(O)O)[C@@H](O)[C@H]2O)c(=O)[nH]1",
    "tested system": "CHIKV nsP1 GTP binding site",
    "recorded result": 133
  },
  {
    "smiles repr": "Nc1nc2c(ncn2[C@@H]2O[C@H](COP(=O)(O)OP(=O)(O)OP(=O)(O)OC[C@H]3O[C@@H](n4cnc5c(N)ncnc54)[C@H](O)[C@@H]3O)[C@@H](O)[C@H]2O)c(=O)[nH]1",
    "tested system": "CHIKV nsP1 GTP binding site",
    "recorded result": 1.89
  },
  {
    "smiles repr": "O=c1ccn([C@@H]2O[C@H](COP(=O)(O)OP(=O)(O)OP(=O)(O)O)[C@@H](O)[C@H]2O)c(=O)[nH]1",
    "tested system": "CHIKV nsP1 GTP binding site",
    "recorded result": 4.46
  },
  {
    "smiles repr": "Nc1nc2c(ncn2[C@H]2C[C@H](O)[C@@H](COP(=O)(O)OP(=O)(O)OP(=O)(O)O)O2)c(=O)[nH]1",
    "tested system": "CHIKV nsP1 GTP binding site",
    "recorded result": 4.21
  },
  {
    "smiles repr": "C[n+]1cn([C@@H]2O[C@H](COP(=O)([O-])OP(=O)(O)OP(=O)(O)OC[C@H]3O[C@@H](n4cnc5c(N)ncnc54)[C@H](O)[C@@H]3O)[C@@H](O)[C@H]2O)c2nc(N)[nH]c(=O)c21",
    "tested system": "CHIKV nsP1 GTP binding site",
    "recorded result": 7
  }
]

----------
# Test system: CHIKV nsP1 guanylation activity
# assay: Guanylation assay, covalent nsP1-GTP-680 formation, SDS-PAGE fluorescence
# protocol conditions: single replicates, 100 μM analog, scaled guanylation, Fig 4 data; 100 µM
# label = Condition met if Percent of Control >= 50 else Condition not met

[
  {
    "smiles repr": "Nc1nc2c(ncn2[C@@H]2O[C@H](CO)[C@@H](O)[C@H]2O)c(=O)[nH]1",
    "category": "Condition met"
  },
  {
    "smiles repr": "Nc1nc2c(ncn2[C@H]2CC[C@@H](COP(=O)(O)OP(=O)(O)OP(=O)(O)O)O2)c(=O)[nH]1",
    "category": "Condition not met"
  },
  {
    "smiles repr": "O=c1ccn([C@@H]2O[C@H](COP(=O)(O)OP(=O)(O)OP(=O)(O)O)[C@@H](O)[C@H]2O)c(=O)[nH]1",
    "category": "Condition met"
  },
  {
    "smiles repr": "Nc1nc2c(ncn2[C@@H]2O[C@H](COP(=O)(O)OP(=O)(O)O)[C@@H](O)[C@H]2O)c(=O)[nH]1",
    "category": "Condition met"
  },
  {
    "smiles repr": "Nc1nc2c(ncn2[C@H]2C[C@H](O)[C@@H](COP(=O)(O)OP(=O)(O)OP(=O)(O)O)O2)c(=O)[nH]1",
    "category": "Condition not met"
  },
  {
    "smiles repr": "O=c1[nH]c(=O)c2ncn([C@@H]3O[C@H](COP(=O)(O)OP(=O)(O)OP(=O)(O)O)[C@@H](O)[C@H]3O)c2[nH]1",
    "category": "Condition not met"
  }
]

----------
# Tested on: CHIKV nsP1 guanylation activity
# assay: Guanylation assay, covalent nsP1-GTP-680 formation, SDS-PAGE fluorescence
# protocol conditions: mean of replicates, 100 μM analog, Fig 4 data
Listing of recorded Average POC by entry.

[
  {
    "smiles repr": "Nc1nc2c(ncn2[C@@H]2O[C@H](CO)[C@@H](O)[C@H]2O)c(=O)[nH]1",
    "Average POC": 109.076
  },
  {
    "smiles repr": "O=c1ccn([C@@H]2O[C@H](COP(=O)(O)OP(=O)(O)OP(=O)(O)O)[C@@H](O)[C@H]2O)c(=O)[nH]1",
    "Average POC": 59.4237
  },
  {
    "smiles repr": "Nc1ncnc2c1ncn2[C@@H]1O[C@H](COP(=O)(O)OP(=O)(O)OP(=O)(O)O)[C@@H](O)[C@H]1O",
    "Average POC": 73.0319
  },
  {
    "smiles repr": "Nc1nc2c(ncn2[C@@H]2O[C@H](COP(=O)(O)OP(=O)(O)OP(=O)(O)O)[C@@H](O)[C@H]2O)c(=O)[nH]1",
    "Average POC": 44.8021
  },
  {
    "smiles repr": "O=c1[nH]c(=O)c2ncn([C@@H]3O[C@H](COP(=O)(O)OP(=O)(O)OP(=O)(O)O)[C@@H](O)[C@H]3O)c2[nH]1",
    "Average POC": 32.3662
  },
  {
    "smiles repr": "O=c1[nH]cnc2c1ncn2[C@@H]1O[C@H](COP(=O)(O)OP(=O)(O)OP(=O)(O)O)[C@@H](O)[C@H]1O",
    "Average POC": 74.6508
  },
  {
    "smiles repr": "Nc1nc2c(ncn2[C@@H]2O[C@H](COP(=O)(O)OP(=O)(O)O)[C@@H](O)[C@H]2O)c(=O)[nH]1",
    "Average POC": 78.8606
  },
  {
    "smiles repr": "Nc1nc2c(ncn2[C@@H]2O[C@H](COP(=O)(O)OP(=O)(O)OP(=O)(O)OC[C@H]3O[C@@H](n4cnc5c(N)ncnc54)[C@H](O)[C@@H]3O)[C@@H](O)[C@H]2O)c(=O)[nH]1",
    "Average POC": 66.8805
  },
  {
    "smiles repr": "Nc1nc2c(ncn2[C@H]2C[C@H](O)[C@@H](COP(=O)(O)OP(=O)(O)OP(=O)(O)O)O2)c(=O)[nH]1",
    "Average POC": 25.7895
  },
  {
    "smiles repr": "Cn1c[n+]([C@@H]2O[C@H](COP(=O)(O)O)[C@@H](O)[C@H]2O)c2nc(N)[nH]c(=O)c21",
    "Average POC": 102.357
  },
  {
    "smiles repr": "Nc1ccn([C@@H]2O[C@H](COP(=O)(O)OP(=O)(O)OP(=O)(O)O)[C@@H](O)[C@H]2O)c(=O)n1",
    "Average POC": 49.6579
  },
  {
    "smiles repr": "Nc1nc2c(ncn2[C@@H]2O[C@H](COP(=O)(O)O)[C@@H](O)[C@H]2O)c(=O)[nH]1",
    "Average POC": 99.8208
  },
  {
    "smiles repr": "C[n+]1cn([C@@H]2O[C@H](COP(=O)([O-])OP(=O)(O)OP(=O)(O)OC[C@H]3O[C@@H](n4cnc5c(N)ncnc54)[C@H](O)[C@@H]3O)[C@@H](O)[C@H]2O)c2nc(N)[nH]c(=O)c21",
    "Average POC": 75.4802
  },
  {
    "smiles repr": "Nc1nc2c(ncn2[C@H]2CC[C@@H](COP(=O)(O)OP(=O)(O)OP(=O)(O)O)O2)c(=O)[nH]1",
    "Average POC": 32.7576
  },
  {
    "smiles repr": "Cn1c[n+]([C@@H]2O[C@H](COP(=O)([O-])OP(=O)(O)OP(=O)(O)O)[C@@H](O)[C@H]2O)c2nc(N)[nH]c(=O)c21",
    "Average POC": 37.4013
  }
]
